Tested on: SK-MEL-28 melanoma
Test: NCI-60 one-dose screen, 48 h (100 = growth as untreated, 0 = no growth, -100 = all killed)
Details: 10 µM unless noted
This is part of a sample that, as a whole, favours compounds with a hit. Of some 83,000 tested, about 20% had one in any assay.
MEASURED PARAMETER: growth (%)
// return numeric value only (unit: %, not printed)

MOLECULE	UNIT LABEL	growth
CC[C@]12CC(C(=O)OC)=C3Nc4ccccc4[C@@]34CCN(C14)[C@@H]1c3cc4c(cc3O[C@@H]1[C@H]2O)NC1=C(C(=O)OC)C[C@@]2(CC)C3N(CC[C@@]143)C[C@H]1O[C@H]12 (some centres undefined)	%	20.7
O=C(CSc1cc[n+](CCCCO)c2ccccc12)n1ccc2ccccc21	%	110
CCCCCCN1C=C/C(=C\C(=O)n2ccc3ccccc32)c2ccccc21	%	101
Cc1ccc(S(=O)(=O)NCCCNc2nc(Nc3ccc(N4CCN(C)CC4)cc3)nc3ccsc23)cc1	%	-84.5
C/C(=N/N)c1nnn(-c2ccc(Br)cc2)c1C	%	99.2
O=C(Nc1cccc(C(F)(F)F)c1)N1CCN(c2cc(-c3cn(-c4ccccc4)nc3-c3cccc(O)c3)ccn2)CC1	%	55

Please supply the value of reported growth for the item COc1ccc(-c2cc(-c3ccc(N(C)C)cc3)n3c(n2)nc2ccccc23)cc1
77

Please supply the value of reported growth for the item COc1ccc(-c2cc(-c3ccc(N4CCOCC4)cc3)n3c(n2)nc2ccccc23)cc1OC
94.4

Please supply the value of reported growth for the item NC1C2CCC1CN(c1cnc(C(=O)Nc3cc(F)cc4cccnc34)cn1)C2 (centres undefined)
63.5

Please supply the value of reported growth for the item O=C(CCCCCCN1CC(=O)N2[C@@H](c3ccc(Cl)s3)c3[nH]c4ccccc4c3C[C@H]2C1=O)NO
37.2

Please supply the value of reported growth for the item Fc1cc(F)cc(NNC(=S)c2ccccc2)c1
48.9

----------
Tested on: RXF 393 renal
Test: NCI-60 one-dose screen, 48 h (100 = growth as untreated, 0 = no growth, -100 = all killed)
Conditions: 10 µM unless noted
About 83,000 compounds went through this panel and 20% of them were active in at least one assay; those are over-represented in the sample as a whole. Calls of active or inactive are those of the source. Rule for the calls: active = growth percent below 10; inactive = the rest.
Quick reference for growth among some compounds

COMPOUND	MEASURED PARAMETER	READING
COc1ccc(-c2cc(-c3ccc(N4CCOCC4)cc3)n3c(n2)nc2ccccc23)cc1OC	growth	72.8% (inactive)
O=C(Nc1ccc(N=Cc2c(O)[nH]c3ccccc23)cc1)Nc1ccc(S(=O)(=O)Nc2ncccn2)cc1	growth	122% (inactive)
CN1CCN(c2ccc(C(=O)/C=C/c3cc(F)cc(C(F)(F)F)c3)cc2)CC1	growth	70.5% (inactive)
Cc1ccc(/C(N)=N/C(N)=N/c2nc3ccccc3s2)cc1	growth	103% (inactive)
CCc1nnc(NC(=O)c2cc(-c3ccc(Cl)cc3Cl)oc2C)s1	growth	109% (inactive)
COc1cc(/C=C2/C(=O)Nc3ccc(Cl)cc32)ccc1OCc1ccc(Cl)cc1	growth	93.4% (inactive)
CN(C)CC(=O)Nc1nc(-c2cccc(NS(=O)(=O)c3cccc4c(N(C)C)cccc34)c2)cs1	growth	88.5% (inactive)
Cc1ccc(NC(=O)Nc2nc3ccc([N+](=O)[O-])cc3s2)cc1	growth	-12.1% (active)
CCOP(=O)(OCC)OC[C@]12CCC(C)(C)CC1C1=CC[C@@H]3[C@@]4(C)CCCNC(C)(C)[C@@H]4CC[C@@]3(C)[C@]1(C)CC2 (some centres undefined)	growth	64% (inactive)
CC(=O)OCCCCN1C=C/C(=C\C(=O)n2ccc3ccccc32)c2ccccc21	growth	115% (inactive)

Please supply the value of reported growth for the item COc1ccc2c(c1)c(-c1nnc(N)nc1-c1c[nH]c3ccc(F)cc13)cn2C
47.8% (inactive)

Please supply the value of reported growth for the item CCCCCCNC(=O)Oc1ccc(/C(=C(/C)c2ccc(Cl)cc2)c2ccc(OCCN3CCCCCC3)cc2)cc1
44.1% (inactive)

Please supply the value of reported growth for the item C#C[C@]1(O)CC[C@H]2[C@@H]3CC=C4c5sc(N(C)c6ccccc6)nc5CC[C@]4(C)[C@H]3CC[C@@]21C
75.8% (inactive)

Please supply the value of reported growth for the item Cc1ccc(N2CCN(C3=C(Cl)C(=O)c4ncccc4C3=O)CC2)cc1
12.5% (inactive)

----------
Test system: IGROV1 ovarian
Assay: NCI-60 one-dose screen, 48 h
Settings: 10 µM unless noted
Protocol: Growth inhibition of the IGROV1 human tumor cell line is measured as a screen for anti-cancer activity. Cells are grown in 96 well plates and exposed to the test compound for 48 hours. Compounds are tested at a single concentration, which is 10^-5 M for most compounds. The reported endpoint is percent growth (GI% or GIPRCNT), where numbers from 0 - 100% represent growth inhibition, and numbers from -100% - 0 represent cell death. For example, a value of 40 represents 60% growth inhibition. […]
This is part of a sample that, as a whole, favours compounds with a hit. Of some 83,000 tested, about 20% had one in any assay. Activity calls are given as the source filed them. The calls were made as follows: active = growth percent below 10; inactive = the rest.
Write down the outcome that applies. Available outcomes: 1 for active, 0 for inactive

Here's what some known entries look like.
COMPOUND	QUALITATIVE LABEL
O=C(CCCCCCNC(=O)c1csc(Br)n1)NO	0
CCCCCCN1C=C/C(=C\C(=O)n2ccc3ccccc32)c2ccccc21	0

GET /call?item= O=C1CSC(c2cn(-c3ccccc3)nc2-c2ccc(Cl)cc2)N1c1ccccc1 (stereo not drawn) returns the recorded outcome of this test.
0

GET /call?item= C/C(=C(\c1ccc(O)cc1)c1ccc(OCCN2CCCCCC2)cc1)c1ccc(Cl)cc1 returns the recorded outcome of this test.
1

GET /call?item= CN1CCN(Cc2ccc(NC(=O)c3cncc(C#Cc4cnc5ccc(NCCO)nn45)c3)cc2C(F)(F)F)CC1 returns the recorded outcome of this test.
1

GET /call?item= Cc1cc2nc(C(Cl)Cl)nc(-c3ccc(S(=O)(=O)N(C)C)cc3)n2n1 returns the recorded outcome of this test.
0

GET /call?item= Brc1cc(-c2cc(-c3ccc4c(c3)OCCO4)[nH]n2)cs1 returns the recorded outcome of this test.
0

GET /call?item= COC(=O)CCCNCCCn1ccc2cc(NCc3cccc(-c4ccccc4)c3C)ccc21 returns the recorded outcome of this test.
0

GET /call?item= O=C(CSc1nnc(-c2cccs2)n1-c1ccccc1)Nc1ccccc1 returns the recorded outcome of this test.
0

----------
Test system: OVCAR-3 ovarian
Assay: NCI-60 one-dose screen, 48 h
Conditions: 10 µM unless noted
The panel holds about 83,000 compounds, 20% with a hit somewhere; the sample as a whole holds those more often. The source made the active and inactive calls. The calls were made as follows: active = growth percent below 10; inactive = the rest.
Write down the outcome that applies. Available outcomes: 1 for active, -1 for inactive

CHEM SMILES	QUALITATIVE LABEL
O=C(CCCCCCNC(=O)C(O)(O)C(F)(F)F)Nc1nc2ccccc2s1	1
COC(=O)N1CCN(CCNCc2ccc(NC(=O)c3ccc(C)c(C#Cc4cnc5cccnn45)c3)cc2C(F)(F)F)CC1	-1
CN(C)S(=O)(=O)c1ccc(-c2nc(C(Cl)Cl)nc3cc(-c4ccccc4)nn23)cc1	-1
COc1ccc2c(c1)c(-c1nnc(N)nc1-c1c[nH]c3ccc(F)cc13)cn2C	1

# next compound below
GET /call?item= CN1CCN(c2ccc(Nc3nc(NCCCNS(=O)(=O)c4cccc5ccccc45)c4sccc4n3)cc2)CC1 returns the recorded outcome of this test.
1

----------
System: SK-MEL-28 melanoma
Experiment: NCI-60 one-dose screen, 48 h (100 = growth as untreated, 0 = no growth, -100 = all killed)
Settings: 10 µM unless noted
Compounds without any hit were thinned out: in the full panel of roughly 83,000, 20% have a hit.
MEASURED PARAMETER: growth (%)
// return numeric value only (unit: %, not printed)

Observe how each entry below is paired with its result.
COMPOUND	UNIT LABEL	growth
O=C(/C=C/c1cccc(Br)c1)c1cccc(OCCCCOc2cccc(C(=O)/C=C/c3cccc(Br)c3)c2)c1	%	110
CCN1CCN(c2ccc(NC(=O)Nc3ccc4c(ccn4-c4ccnc(C(=O)NC)c4)c3)cc2C(F)(F)F)CC1	%	-81
O=S(=O)(NCCCNc1nccc(-c2[nH]c(-c3ccccc3)nc2-c2ccc(F)c(O)c2)n1)c1ccccc1	%	33.8
C#C[C@]1(O)CC[C@H]2[C@@H]3CC=C4c5sc(Nc6cc(Cl)ccc6OC)nc5CC[C@]4(C)[C@H]3CC[C@@]21C	%	-59.1
O=C(Nc1ccc(Cl)c(C(F)(F)F)c1)Nc1ccc2oc(=O)ccc2c1	%	66.7

Please supply the value of reported growth for the item O=C(Nc1ccccc1)Nc1nc2ccc([N+](=O)[O-])cc2[nH]1
61.6

Please supply the value of reported growth for the item CN1CCN(c2ccc(Nc3nc(NCCCNS(=O)(=O)c4ccc(Cl)cc4)c4sccc4n3)cc2)CC1
-71.9

Please supply the value of reported growth for the item CCCCCc1ccc(S(=O)(=O)Nc2cc(-c3csc(N)n3)ccc2OC)cc1
111

Please supply the value of reported growth for the item CC(C)(C)OC(=O)Nc1ccc(-c2cccc(Oc3ccc4nnc(Cl)n4n3)c2)cc1
96.9

Please supply the value of reported growth for the item COc1ccc(/C=N/NC(=O)CSc2nc(-c3cnccn3)cc(-c3cccs3)c2C#N)cc1
77

Please supply the value of reported growth for the item Cn1cc(-c2nn3cc(-c4ccncc4)nc3s2)c2cc(Br)ccc21
94.2

Origin of the recorded values: PubChem BioAssay (NCI)
